# MIC per record follows
# System: E coli carrying specific resistance determinants
# testDetails: MIC by broth microdilution, E coli carrying specific resistance determinants
# Assay type: cell-based
# details: Escherichia coli, read-out: MIC E. coli AG106 AAC(2′)-Ia
Where a name gives a salt, the structure may show the parent alone.

| molecule | inequalitySymbol | MIC, µg/mL |
| --- | --- | --- |
| NCC1OC(OC2C(CO)OC(OC3C(O)C(N)CC(N)C3OC3OC(CN)C(O)C(O)C3NC=O)C2O)C(N)C(O)C1O (centres unmarked) | = | 2 |
| NC[C@H]1O[C@H](O[C@H]2[C@H](O[C@@H]3O[C@H](CO)[C@@H](O)[C@H]3O)[C@@H](O)[C@H](N)C[C@@H]2N)[C@H](N)[C@@H](O)[C@@H]1O [Ribostamycin, ribostamycin, reference compound] | = | 128 |
| CNC1C(OC2C(N)CC(N)C(O)C2OC2OC(CO)C(OC3OC(CN)C(O)C(O)C3N)C2O)OC(CO)C(O)C1O (centres unmarked) [Compound 115, 2′-N-Methyl-paromomycin acetate salt] | = | 4 |
| NC[C@@H]1O[C@H](O[C@H]2[C@@H](O)[C@H](O[C@@H]3[C@@H](O)[C@H](N)C[C@H](N)[C@H]3O[C@H]3O[C@H](CO)[C@@H](O)[C@H](O)[C@H]3N)O[C@@H]2CO)[C@H](N)[C@@H](O)[C@@H]1O [paromomycin, reference compound] | > | 64 |
| CCNC1C(OC2C(N)CC(N)C(O)C2OC2OC(CO)C(OC3OC(CN)C(O)C(O)C3N)C2O)OC(CN)C(O)C1O (centres unmarked) [Compound 172, 2′-N-Ethyl-neomycin acetate salt] | = | 0.5 |

###

# Test system: E coli wild type
# testDetails: MIC by broth microdilution, wild type E coli
# Type: cell-based
# details: Escherichia coli, WT; Table 3 (Example 1); read-out: MIC WT
Counter-ions that a name gives are not always drawn.

| compound | targetSystem | MIC |
| --- | --- | --- |
| NC[C@@H]1O[C@H](O[C@@H]2C(O)[C@H](O[C@@H]3C(O)[C@H](N)CC(N)[C@H]3O[C@H]3OC(CO)[C@@H](O)[C@H](O)C3N)O[C@@H]2CNC=O)C(N)C(O)[C@@H]1O (some centres unmarked) [Compound 137, acetate salt] | E coli wild type | 1 to 2 µg/mL |
| NC[C@@H]1O[C@H](O[C@H]2[C@@H](O)[C@H](O[C@@H]3[C@@H](O)[C@H](N)C[C@H](N)[C@H]3O[C@H]3O[C@H](CO)[C@@H](O)[C@H](O)[C@H]3N)O[C@@H]2CO)[C@H](N)[C@@H](O)[C@@H]1O [paromomycin, reference compound] | E coli wild type | 1 to 2 µg/mL |

###

# Test system: M. abscessus
# testDetails: MIC by broth microdilution, M. abscessus
# Format: cell-based
# details: Mycobacteroides abscessus, ATCC19977; ATCC 19977 WT; Table 5 (Example 3); read-out: MIC M. abscessus ATCC 19977 WT
Where a name gives a salt, the structure may show the parent alone.
quantityName: MIC (µg/mL)

| molecule | result |
| --- | --- |
| NC[C@H]1O[C@H](O[C@H]2[C@H](O[C@@H]3O[C@H](CO)[C@@H](O)[C@H]3O)[C@@H](O)[C@H](N)C[C@@H]2N)[C@H](N)[C@@H](O)[C@@H]1O [Ribostamycin, ribostamycin, reference compound] | 128 |
| CN[C@@H]1[C@@H](O)[C@@H](O[C@@H]2[C@@H](O)[C@H](O[C@H]3OC(CNCCO)=CC[C@H]3N)[C@@H](N)C[C@H]2NC(=O)[C@@H](O)CCN)OC[C@]1(C)O [PLZ, plazomicin, reference compound] | 1 |
| CCNC1C(OC2C(N)CC(N)C(O)C2OC2OC(CO)C(OC3OC(CN)C(O)C(O)C3N)C2O)OC(CO)C(O)C1O (centres unmarked) | 32 |
| CNC1C(OC2C(N)CC(N)C(O)C2OC2OC(CO)C(OC3OC(CN)C(O)C(O)C3N)C2O)OC(CN)C(O)C1O (centres unmarked) [Compound 171, 2′-N-Methyl-neomycin acetate salt] | 0.25 |
| NCC1OC(OC2C(N)CC(N)C(O)C2OC2OC(CO)C(OC3OC(CN)C(O)C(O)C3N)C2O)CC(O)C1O (centres unmarked) [Compound 173, 2′-Deamino-neomycin acetate salt] | 4 |
| CCNC1[C@@H](OC2C(N)CC(N)[C@@H](O)[C@H]2O[C@@H]2O[C@H](CO)[C@H](O)C2O)OC(CN)[C@@H](O)[C@@H]1O (some centres unmarked) | 128 |
| CNC1C(OC2C(N)CC(N)C(O)C2OC2OC(CO)C(OC3OC(CN)C(O)C(O)C3N)C2O)OC(CO)C(O)C1O (centres unmarked) [Compound 115, 2′-N-Methyl-paromomycin acetate salt] | 16 |
| CCCNC1C(OC2C(N)CC(N)C(O)C2OC2OC(CO)C(OC3OC(CN)C(O)C(O)C3N)C2O)OC(CO)C(O)C1O (centres unmarked) [Compound 128, 2′-N-Propyl-paromomycin acetate salt] | 32 |
| NCC1OC(OC2C(CO)OC(OC3C(O)C(N)CC(N)C3OC3OC(CN)C(O)C(O)C3NC=O)C2O)C(N)C(O)C1O (centres unmarked) | 16 |
| CCNC1C(OC2C(N)CC(N)C(O)C2OC2OC(CO)C(OC3OC(CN)C(O)C(O)C3N)C2O)OC(CN)C(O)C1O (centres unmarked) [Compound 172, 2′-N-Ethyl-neomycin acetate salt] | 0.25 |
| NCC1OC(OC2C(CO)OC(OC3C(O)C(N)CC(N)C3OC3OC(CN)C(O)C(O)C3O)C2O)C(N)C(O)C1O (centres unmarked) | 2 |

###

Listed here are molecules together with their documented MIC M. smegmatis SZ380 WT.
# Tested on: M. smegmatis SZ380
# testDetails: MIC by broth microdilution, M. smegmatis
# details: SZ380 WT; Table 5 (Example 3)
quantityName: MIC M. smegmatis SZ380 WT (µg/mL)

| molecule | quantityName | unitText | inequalitySymbol | result |
| --- | --- | --- | --- | --- |
| CC(=O)O.NCC(=O)NC1C(OC2C(N)CC(N)C(O)C2OC2OC(CO)C(OC3OC(CN)C(O)C(O)C3N)C2O)OC(CN)C(O)C1O (centres unmarked) | MIC M. smegmatis SZ380 WT | µg/mL | = | 0.25 |
| CC(=O)NC1C(OC2C(N)CC(N)C(O)C2OC2OC(CO)C(OC3OC(CN)C(O)C(O)C3N)C2O)OC(CN)C(O)C1O (centres unmarked) | MIC M. smegmatis SZ380 WT | µg/mL | = | 8 |
| CC(=O)O.NCC1OC(OC2C(CO)OC(OC3C(O)C(N)CC(N)C3OC3OC(CO)C(O)C(O)C3O)C2O)C(N)C(O)C1O (centres unmarked) | MIC M. smegmatis SZ380 WT | µg/mL | > | 128 |
| NCC[C@H](O)C(=O)N[C@@H]1C[C@H](N)[C@@H](O[C@H]2O[C@H](CN)[C@@H](O)[C@H](O)[C@H]2O)[C@H](O)[C@H]1O[C@H]1O[C@H](CO)[C@@H](O)[C@H](N)[C@H]1O [AMK, reference compound] | MIC M. smegmatis SZ380 WT | µg/mL | = | 0.5 |
| NC[C@@H]1O[C@H](O[C@H]2[C@@H](O)[C@H](O[C@@H]3[C@@H](O)[C@H](N)C[C@H](N)[C@H]3O[C@H]3O[C@H](CN)[C@@H](O)[C@H](O)[C@H]3N)O[C@@H]2CO)[C@H](N)[C@@H](O)[C@@H]1O [neomycin, Neomycin B, reference compound] | MIC M. smegmatis SZ380 WT | µg/mL | = | 0.5 |

###

# Tested on: cytosolic ribosome (human chimeric)
# Format: biochemical
# details: cytosolic; Table 4 (Example 3); read-out: IC50 Cyt
pIC50: −log10 of the molar value. Where a name gives a salt, the structure may show the parent alone.
Listed here: items and their measured pIC50.

| molecule | pIC50 |
| --- | --- |
| CNC1C(OC2C(N)CC(N)C(O)C2OC2OC(CO)C(OC3OC(CN)C(O)C(O)C3N)C2O)OC(CO)C(O)C1O (stereo not shown) [Compound 115, 2′-N-Methyl-paromomycin acetate salt] | 4.42 |
| NCC1OC(OC2C(N)CC(N)C(O)C2OC2OC(CO)C(OC3OC(CN)C(O)C(O)C3N)C2O)CC(O)C1O (stereo not shown) [Compound 173, 2′-Deamino-neomycin acetate salt] | 4.07 |
| CNC1C(OC2C(N)CC(N)C(O)C2OC2OC(CO)C(OC3OC(CN)C(O)C(O)C3N)C2O)OC(CN)C(O)C1O (stereo not shown) [Compound 171, 2′-N-Methyl-neomycin acetate salt] | 4.43 |
| NC[C@@H]1O[C@H](O[C@H]2[C@@H](O)[C@H](O[C@@H]3[C@@H](O)[C@H](N)C[C@H](N)[C@H]3O[C@H]3O[C@H](CO)[C@@H](O)[C@H](O)[C@H]3N)O[C@@H]2CO)[C@H](N)[C@@H](O)[C@@H]1O [paromomycin, reference compound] | 4.51 |
| CCNC1C(OC2C(N)CC(N)C(O)C2OC2OC(CO)C(OC3OC(CN)C(O)C(O)C3N)C2O)OC(CN)C(O)C1O (stereo not shown) [Compound 172, 2′-N-Ethyl-neomycin acetate salt] | 4.37 |
| NC[C@@H]1O[C@H](O[C@H]2[C@@H](O)[C@H](O[C@@H]3[C@@H](O)[C@H](N)C[C@H](N)[C@H]3O[C@H]3O[C@H](CN)[C@@H](O)[C@H](O)[C@H]3N)O[C@@H]2CO)[C@H](N)[C@@H](O)[C@@H]1O [neomycin, Neomycin B, reference compound] | 4.46 |
| NCC1OC(OC2C(CO)OC(OC3C(O)C(N)CC(N)C3OC3OC(CN)C(O)C(O)C3NC=O)C2O)C(N)C(O)C1O (stereo not shown) | 3.90 |
| NCC1OC(OC2C(CO)OC(OC3C(O)C(N)CC(N)C3OC3OC(CN)C(O)C(O)C3O)C2O)C(N)C(O)C1O (stereo not shown) | 3.97 |
| CCNC1C(OC2C(N)CC(N)C(O)C2OC2OC(CO)C(OC3OC(CN)C(O)C(O)C3N)C2O)OC(CO)C(O)C1O (stereo not shown) | 4.55 |
| CCCNC1C(OC2C(N)CC(N)C(O)C2OC2OC(CO)C(OC3OC(CN)C(O)C(O)C3N)C2O)OC(CO)C(O)C1O (stereo not shown) [Compound 128, 2′-N-Propyl-paromomycin acetate salt] | 4.68 |
